Assay: Ratio of drug level in kidney to blood in rat at 1 mg/kg, iv
Format: ADME, organism-based
readoutType: Kp
Answers are plain numbers.

Ask: Report measured Kp; entry is NC(=O)c1nnc(N[C@@H]2CCCC[C@@H]2N)nc1Nc1cccc2cc[nH]c12
Reply: 100

* * *

Experiment: Mean residence time in Sprague-Dawley rat at 1 mg/kg, iv and 3 mg/kg, po administered as cassette dosing
Assay type: ADME, organism-based
Details: in vivo
Please note: MRT exactly at 3 h is criterion not met. Only values below 3 h get criterion met.

Look over these answered cases.
Ask: Given the entry C[C@@H](Oc1cc(-c2cnn(C)c2)cc2nscc12)[C@H]1CNC(=O)C1 , would its reported MRT be below 3 h?
Reply: criterion met

Ask: Given the entry COc1ccc(-c2cc3ncsc3c(O[C@H](C)[C@H]3CNC(=O)C3)n2)cc1OC , would its reported MRT be below 3 h?
Reply: criterion met

Ask: Given the entry C[C@@H](Oc1cc(-c2cnn(C(F)F)c2)cc2nscc12)[C@H]1CNC(=O)C1 , would its reported MRT be below 3 h?
Reply: criterion met

Ask: Given the entry C[C@@H](Oc1cc(-c2cnn(C(F)F)c2)cc2ncsc12)[C@H]1CNC(=O)O1 , would its reported MRT be below 3 h?
Reply: criterion not met

// switching to the query compound
Ask: Given the entry C[C@@H](Oc1cc(-c2cnn(C(F)F)c2)cc2nscc12)[C@H]1CNC(=O)O1 , would its reported MRT be below 3 h?
Reply: criterion met

* * *

Assay: Ratio of drug level in liver to blood in rat at 1 mg/kg, iv
Type: ADME, organism-based
readoutType: Kp
Answers are plain numbers.

Ask: Report measured Kp; entry is NC(=O)c1nnc(N[C@@H]2CCCC[C@@H]2N)nc1Nc1cccc2cc[nH]c12
Reply: 100

* * *

Target: Tyrosine-protein kinase SYK (Homo sapiens, UniProt P43405)
Assay: Inhibition of Syk in anti-igM stimulated human Ramos B cells assessed as phospho-BLNK level preincubated for 30 mins followed by anti-IgM stimulation measured after 15 mins by flow cytometric analysis
Assay type: cell-based
Please note: IC50 exactly at 300 nM is no. Only values below 300 nM get yes.

Look over these answered cases.
Ask: Given the entry C[C@@H](Oc1nc(-c2cnn(C)c2)cc2nscc12)[C@H]1CNC(=O)C1 , would its reported IC50 be below 300 nM?
Reply: yes

Ask: Given the entry C[C@@H](Oc1nc(-c2cnn(C(F)F)c2)cc2ncsc12)[C@H]1CNC(=O)O1 , would its reported IC50 be below 300 nM?
Reply: yes

Ask: Given the entry C[C@@H](Oc1cc(-c2cnn(C(F)F)c2)cc2nscc12)[C@H]1CNC(=O)O1 , would its reported IC50 be below 300 nM?
Reply: no

Ask: Given the entry C[C@@H](Oc1cc(-c2cnn(C(F)F)c2)cc2nscc12)[C@H]1CNC(=O)C1 , would its reported IC50 be below 300 nM?
Reply: no

Ask: Given the entry C[C@@H](Oc1cc(-c2cnn(C)c2)cc2nscc12)[C@H]1CNC(=O)C1 , would its reported IC50 be below 300 nM?
Reply: yes

Next:
Ask: Given the entry C[C@@H](Oc1cc(-c2cnn(C)c2)cc2ncsc12)[C@H]1CNC(=O)C1 , would its reported IC50 be below 300 nM?
Reply: yes

Ask: Given the entry COc1ccc(-c2cc3ncsc3c(O[C@H](C)[C@H]3CNC(=O)C3)n2)cc1OC , would its reported IC50 be below 300 nM?
Reply: yes

Ask: Given the entry C[C@@H](Oc1cc(-c2cnn(C(F)F)c2)cc2ncsc12)[C@H]1CNC(=O)O1 , would its reported IC50 be below 300 nM?
Reply: yes

Ask: Given the entry C[C@@H](Oc1nc(-c2cnn(C)c2)cc2ncsc12)[C@H]1CNC(=O)C1 , would its reported IC50 be below 300 nM?
Reply: yes

* * *

Molecular target: Tyrosine-protein kinase SYK (Homo sapiens)
Assay: Inhibition of Syk in anti-CD32 stimulated CD14+ human monocytes in presence of 90% human blood assessed as phospho-SLP76 level preincubated for 30 mins followed by anti-CD32 stimulation measured after 5 mins by flow cytometric analysis
readoutType: IC50 (nM)
Give bare numbers, in nM.

Completed entries (count: 5):
Ask: Report measured IC50; entry is C[C@@H](Oc1cc(-c2cnn(C)c2)cc2nscc12)[C@H]1CNC(=O)C1
Reply: 298

Ask: Report measured IC50; entry is C[C@@H](Oc1cc(-c2cnn(C(F)F)c2)cc2nscc12)[C@H]1CNC(=O)O1
Reply: 197

Ask: Report measured IC50; entry is C[C@@H](Oc1cc(-c2cnn(C(F)F)c2)cc2nscc12)[C@H]1CNC(=O)C1
Reply: 1020

Ask: Report measured IC50; entry is C[C@@H](Oc1nc(-c2cnn(C)c2)cc2ncsc12)[C@H]1CNC(=O)C1
Reply: 538

Ask: Report measured IC50; entry is C[C@@H](Oc1cc(-c2cnn(C(F)F)c2)cc2ncsc12)[C@H]1CNC(=O)O1
Reply: 230

Kindly give each listed record's IC50.
1. C[C@@H](Oc1nc(-c2cnn(C(F)F)c2)cc2ncsc12)[C@H]1CNC(=O)O1
2. C[C@@H](Oc1cc(-c2cnn(C)c2)cc2ncsc12)[C@H]1CNC(=O)C1
3. C[C@@H](Oc1nc(-c2cnn(C)c2)cc2nscc12)[C@H]1CNC(=O)C1
4. COc1ccc(-c2cc3ncsc3c(O[C@H](C)[C@H]3CNC(=O)C3)n2)cc1OC

Reply:
[522, 186, 290, 517]

* * *

Test system: Rattus norvegicus
Test: Dose normalized Cmax in Sprague-Dawley rat at 1 mg/kg, iv and 3 mg/kg, po administered as cassette dosing
Type: ADME, organism-based
Settings: in vivo
Consider the following compounds; for each one, report its Cmax/dose.
Numbers only, in nM.

Completed entries (count: 5):
Ask: Report measured Cmax/dose; entry is C[C@@H](Oc1cc(-c2cnn(C(F)F)c2)cc2nscc12)[C@H]1CNC(=O)O1
Reply: 614

Ask: Report measured Cmax/dose; entry is C[C@@H](Oc1cc(-c2cnn(C(F)F)c2)cc2ncsc12)[C@H]1CNC(=O)O1
Reply: 803

Ask: Report measured Cmax/dose; entry is C[C@@H](Oc1cc(-c2cnn(C(F)F)c2)cc2nscc12)[C@H]1CNC(=O)C1
Reply: 263

Ask: Report measured Cmax/dose; entry is C[C@@H](Oc1cc(-c2cnn(C)c2)cc2nscc12)[C@H]1CNC(=O)C1
Reply: 94

Ask: Report measured Cmax/dose; entry is COc1ccc(-c2cc3ncsc3c(O[C@H](C)[C@H]3CNC(=O)C3)n2)cc1OC
Reply: 178

Kindly give each listed record's Cmax/dose.
1. C[C@@H](Oc1nc(-c2cnn(C(F)F)c2)cc2ncsc12)[C@H]1CNC(=O)O1
2. C[C@@H](Oc1cc(-c2cnn(C)c2)cc2nscc12)[C@H]1CNC(=O)O1
3. NC(=O)c1nnc(N[C@@H]2CCCC[C@@H]2N)nc1Nc1cccc2cc[nH]c12
4. C[C@@H](Oc1nc(-c2cnn(C)c2)cc2nscc12)[C@H]1CNC(=O)C1

Reply:
1: 917; 2: 477; 3: 80; 4: 109

Ask: Report measured Cmax/dose; entry is C[C@@H](Oc1nc(-c2cnn(C)c2)cc2ncsc12)[C@H]1CNC(=O)C1
Reply: 103

* * *

Biological target: Aurora kinase B (Homo sapiens, UniProt Q96GD4)
Sequence (Q96GD4 whole entry): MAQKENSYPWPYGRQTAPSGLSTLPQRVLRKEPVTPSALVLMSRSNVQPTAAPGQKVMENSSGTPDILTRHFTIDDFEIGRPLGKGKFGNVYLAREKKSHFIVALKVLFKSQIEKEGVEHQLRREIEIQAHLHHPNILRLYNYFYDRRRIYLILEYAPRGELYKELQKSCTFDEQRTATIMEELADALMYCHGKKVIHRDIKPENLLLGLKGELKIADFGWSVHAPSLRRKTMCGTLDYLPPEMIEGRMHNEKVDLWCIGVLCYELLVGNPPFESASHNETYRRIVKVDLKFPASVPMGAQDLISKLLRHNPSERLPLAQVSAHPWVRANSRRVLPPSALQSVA
readoutType: pIC50
One number for each entry, as −log10 of the molar value.

Ask: Report measured pIC50; entry is C[C@@H](Oc1nc(-c2cnn(C(F)F)c2)cc2ncsc12)[C@H]1CNC(=O)O1
Reply: 6.96

* * *

Test: Clearance in Sprague-Dawley rat at 1 mg/kg, iv and 3 mg/kg, po administered as cassette dosing
Format: ADME, organism-based
Settings: in vivo
Please note: clearance exactly at 40 mL/min/kg is not met. Only values below 40 mL/min/kg get met.

Look over these answered cases.
Ask: Given the entry C[C@@H](Oc1cc(-c2cnn(C)c2)cc2nscc12)[C@H]1CNC(=O)O1 , would its reported clearance be below 40 mL/min/kg?
Reply: met

Ask: Given the entry C[C@@H](Oc1nc(-c2cnn(C)c2)cc2nscc12)[C@H]1CNC(=O)C1 , would its reported clearance be below 40 mL/min/kg?
Reply: not met

Ask: Given the entry COc1ccc(-c2cc3ncsc3c(O[C@H](C)[C@H]3CNC(=O)C3)n2)cc1OC , would its reported clearance be below 40 mL/min/kg?
Reply: not met

Ask: Given the entry C[C@@H](Oc1nc(-c2cnn(C(F)F)c2)cc2ncsc12)[C@H]1CNC(=O)O1 , would its reported clearance be below 40 mL/min/kg?
Reply: met

// switching to the query molecule
Ask: Given the entry C[C@@H](Oc1cc(-c2cnn(C)c2)cc2nscc12)[C@H]1CNC(=O)C1 , would its reported clearance be below 40 mL/min/kg?
Reply: not met
